meta.source: patent US9447106B2

biological target: Recombinant Btk (Homo sapiens (Human), UniProt Q06187); assay: Btk kinase assay (TR-FRET); conditions: read-out: IC50 (nM) Btk; recombinant Btk, 1 hour pre-incubation, ATP at Km
Sequence (Q06187 whole entry): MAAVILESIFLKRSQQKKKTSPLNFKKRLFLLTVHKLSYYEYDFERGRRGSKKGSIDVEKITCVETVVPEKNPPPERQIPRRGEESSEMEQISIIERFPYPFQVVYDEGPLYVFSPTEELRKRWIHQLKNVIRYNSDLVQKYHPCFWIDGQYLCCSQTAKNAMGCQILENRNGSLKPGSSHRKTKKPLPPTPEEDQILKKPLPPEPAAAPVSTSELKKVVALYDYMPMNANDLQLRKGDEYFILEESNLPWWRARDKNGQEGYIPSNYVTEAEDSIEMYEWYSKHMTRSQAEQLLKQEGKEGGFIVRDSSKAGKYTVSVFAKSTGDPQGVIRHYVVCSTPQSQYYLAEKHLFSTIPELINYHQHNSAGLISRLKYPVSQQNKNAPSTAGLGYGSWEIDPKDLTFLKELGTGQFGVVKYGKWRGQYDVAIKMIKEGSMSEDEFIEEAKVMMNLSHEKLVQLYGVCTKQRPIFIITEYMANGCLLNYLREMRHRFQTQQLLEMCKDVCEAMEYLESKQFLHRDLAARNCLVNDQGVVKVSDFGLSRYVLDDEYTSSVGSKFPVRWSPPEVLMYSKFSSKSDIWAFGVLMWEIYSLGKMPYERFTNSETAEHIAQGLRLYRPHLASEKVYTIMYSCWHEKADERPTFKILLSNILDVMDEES
Below: a set of entries, each annotated with reported IC50.
State the answer as a number, implicitly in nM.

q: Report IC50 for C=CC(=O)Nc1ccccc1C1CCNc2c(C(N)=O)c(-c3ccc(OCc4ccccc4)cc3)nn21 (centres unmarked) please.
a: 1.5

---
q: Report IC50 for `C=CC(=O)N1CC[C@H]2Nc3c(C(N)=O)c(-c4ccc(Oc5ccccc5)cc4)nn3C[C@H]2C1` please.
a: 15
